Molecular target: T1, CD3 epsilon homodimer protein (UniProt P07766 23-126)
T1 construct: also called CD3 (CD3 epsilon)
T1 sequence (P07766 23-126): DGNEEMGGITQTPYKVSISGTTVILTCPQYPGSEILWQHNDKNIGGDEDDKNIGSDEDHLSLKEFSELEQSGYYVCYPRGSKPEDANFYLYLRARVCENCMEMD
Assay: SPR Biacore T200, CD3e homodimer on chip, vs unaltered GLS3000 antibody
assay_readout: ratio of amounts bound (Z=Y/X)

[[record]]
binder = "GLS3000 P95G (antibody, name in Kabat numbering, V domains shown, one-arm IgG as m2) VH: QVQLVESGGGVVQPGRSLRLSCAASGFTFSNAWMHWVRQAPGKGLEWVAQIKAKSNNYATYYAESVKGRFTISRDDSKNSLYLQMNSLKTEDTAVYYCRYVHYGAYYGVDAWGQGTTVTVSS VL: DIVMTQSPLSLPVTPGEPASISCRSSQSLVHSNRNTYLHWYQQKPGQAPRLLIYKVSNRFSGVPDRFSGSGSGTDFTLKISRVEAEDVGVYYCGQGTQVGYTFGQGTKLEIK"
meas_value = 0.37

[[record]]
binder = "GLS3000 N30K (antibody, name in Kabat numbering, V domains shown, one-arm IgG as m2) VH: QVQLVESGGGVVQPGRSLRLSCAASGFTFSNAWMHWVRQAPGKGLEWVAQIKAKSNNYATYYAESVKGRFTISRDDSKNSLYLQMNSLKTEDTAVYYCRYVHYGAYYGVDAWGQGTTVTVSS VL: DIVMTQSPLSLPVTPGEPASISCRSSQSLVHSNRKTYLHWYQQKPGQAPRLLIYKVSNRFSGVPDRFSGSGSGTDFTLKISRVEAEDVGVYYCGQGTQVPYTFGQGTKLEIK"
meas_value = 1.65

[[record]]
binder = "GLS3000 S27aN (antibody, name in Kabat numbering, V domains shown, one-arm IgG as m2) VH: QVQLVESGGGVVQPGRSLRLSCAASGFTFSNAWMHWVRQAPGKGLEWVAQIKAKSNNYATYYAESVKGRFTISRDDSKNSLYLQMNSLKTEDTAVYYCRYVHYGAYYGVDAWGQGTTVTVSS VL: DIVMTQSPLSLPVTPGEPASISCRSSQNLVHSNRNTYLHWYQQKPGQAPRLLIYKVSNRFSGVPDRFSGSGSGTDFTLKISRVEAEDVGVYYCGQGTQVPYTFGQGTKLEIK"
meas_value = 1.1


Value source: patent US20210388087A1
